Reference source: patent US20260020566A1

The following compounds are listed with their measured inhibition at 20 ppm values.
System: Botrytis cinerea
experimental protocol: Botrytis cinerea (Gray mould) liquid culture growth inhibition, microtiter plate
Assay type: cell-based
run conditions: single compound, 20 ppm, 72 hrs, 24 C, read-out: Observed Activity (%)
Reply numerically in %, unit not repeated.

Sample answers from the record:
compound | unit symbol | data value
CCOC(=O)c1cnn(Cc2ccc(O/C=C(\OCC)C(F)(F)F)cc2)c1 [reference compound] | % | 20
Fc1cccc(F)c1C1(Nc2ncc(-c3nnc(C(F)F)o3)cn2)CC1 | % | 20
CCOC(=O)c1cnn(Cc2ccc(OCC3(C(F)(F)F)OCCO3)cc2)c1 | % | 0

Now for another entry.
Qu. Fill in the blank: the reported inhibition at 20 ppm of Fc1ccccc1C1(Nc2ncc(-c3nnc(C(F)F)o3)cn2)CC1 is ____.
Ans. 20

###

Tested on: Septoria tritici
experimental protocol: Septoria tritici (Leaf blotch) liquid culture growth inhibition, microtiter plate
Format: cell-based
run conditions: Zymoseptoria tritici; single compound, 20 ppm; 72 hrs, 24 C; read-out: Observed Activity (%)
The following molecules are listed with their measured inhibition at 20 ppm values.
Reply numerically in %, unit not repeated.

Sample answers from the record:
molecule | unit symbol | inhibition at 20 ppm
Fc1cccc(F)c1C1(Nc2ncc(-c3nnc(C(F)F)o3)cn2)CC1 | % | 20
Fc1ccccc1C1(Nc2ncc(-c3nnc(C(F)F)o3)cn2)CC1 | % | 20
CCOC(=O)c1cnn(Cc2ccc(O/C=C(\OCC)C(F)(F)F)cc2)c1 [reference compound] | % | 20

Now for another entry.
Qu. Fill in the blank: the reported inhibition at 20 ppm of Fc1cccc(F)c1C1(Oc2ncc(-c3nnc(C(F)F)o3)cn2)CC1 is ____.
Ans. 0

###

Test system: Phakopsora pachyrhizi
experimental protocol: Phakopsora pachyrhizi (Soybean rust) soybean leaf disk preventive fungicidal activity
Format: in vivo
run conditions: Phakopsora pachyrhizi, foliar, single compound, 3 g a.i./ha, approx. 12 dpi, read-out: Observed Activity (%)
measurement name: inhibition at 3 g/ha (%)
Reply numerically in %, unit not repeated.

Sample answers from the record:
compound | inhibition at 3 g/ha [%]
Fc1ccccc1C1(Nc2ncc(-c3nnc(C(F)F)o3)cn2)CC1 | 43
CCOC(=O)c1cnn(Cc2ccc(O/C=C(\OCC)C(F)(F)F)cc2)c1 [reference compound] | 56
Fc1cccc(F)c1C1(Nc2ncc(-c3nnc(C(F)F)o3)cn2)CC1 | 47

Now for another entry.
Qu. Identify the measured inhibition at 3 g/ha of COC(=O)NCc1cc(-c2ccn(-c3c(F)cc(C4CC4)cc3F)n2)ccc1C [reference compound] for Phakopsora pachyrhizi.
Ans. 54
